Test system: HT29 sg-Ctrl (RNF43 wildtype)
Experiment: cell viability activity relative to DMSO (negative = inhibition); higher = more viable cells (less growth inhibition)
Conditions: 5 µM; 96 h
Hi all, reminder that labels come from cell viability activity, split as bucket 1 = under -80%, bucket 2 = from -80% up to -50%, bucket 3 = -50% and over

[
  {
    "compound": "COc1cc(OCc2cccc(-c3ccccc3)c2C)cc(OC)c1CN1CCCC[C@H]1C(=O)O",
    "class-name": "bucket 3"
  },
  {
    "compound": "Cn1c(=O)c(F)c(Nc2ccc(I)cc2F)c2c(=O)n(C[C@@H](O)CO)cnc21",
    "class-name": "bucket 1"
  },
  {
    "compound": "COc1c(C)cnc(Cn2cc(C#CCC(C)(C)O)c3c(Cl)nc(N)nc32)c1C",
    "class-name": "bucket 1"
  },
  {
    "compound": "CCN1CCN(Cc2ccc(Nc3ncc(F)c(-c4cc(F)c5nc(C)n(C(C)C)c5c4)n3)nc2)CC1",
    "class-name": "bucket 3"
  },
  {
    "compound": "COc1ccc2c(O[C@@H]3C[C@H]4C(=O)N[C@]5(C(=O)NS(=O)(=O)C6CC6)C[C@H]5/C=C\\CCCCN(C)C(=O)[C@@H]4C3)cc(-c3nc(C(C)C)cs3)nc2c1C",
    "class-name": "bucket 3"
  },
  {
    "compound": "CC(=O)N(O)CCCCCNC(=O)CCC(=O)N(O)CCCCCNC(=O)CCC(=O)N(O)CCCCCN",
    "class-name": "bucket 3"
  },
  {
    "compound": "Cc1cc(Nc2cc(N3CCN(C)CC3)nc(/C=C/c3ccccc3)n2)n[nH]1",
    "class-name": "bucket 2"
  },
  {
    "compound": "Cc1ccccc1CN1C(=O)C2=C(CCN(Cc3ccccc3)C2)N2CCN=C12",
    "class-name": "bucket 2"
  },
  {
    "compound": "Cn1cc(-c2ccc(S(=O)(=O)n3ccc(/C=C/C(=O)Nc4ccccc4N)c3)cc2)cn1",
    "class-name": "bucket 2"
  },
  {
    "compound": "CCCCC(CC)CNC(=N)NC(=N)NCCCCCCNC(=N)NC(=N)NCC(CC)CCCC (stereo not given)",
    "class-name": "bucket 1"
  },
  {
    "compound": "O=C(c1c(F)ccc(NS(=O)(=O)N2CC[C@@H](F)C2)c1F)c1c[nH]c2ncc(-c3cnc(C4CC4)nc3)cc12",
    "class-name": "bucket 2"
  },
  {
    "compound": "C[C@@H](Oc1cc(-c2cnn(C3CCNCC3)c2)cnc1N)c1c(Cl)ccc(F)c1Cl",
    "class-name": "bucket 1"
  },
  {
    "compound": "CCCCCCCCCCC(CO)CCCCCCCC (stereo not given)",
    "class-name": "bucket 2"
  },
  {
    "compound": "CO[C@@H](C(=O)N1Cc2[nH]nc(NC(=O)c3ccc(N4CCN(C)CC4)cc3)c2C1)c1ccccc1",
    "class-name": "bucket 2"
  },
  {
    "compound": "CCOc1cc2ncc(C#N)c(Nc3ccc(OCc4ccccn4)c(Cl)c3)c2cc1NC(=O)/C=C/CN(C)C",
    "class-name": "bucket 3"
  },
  {
    "compound": "Cc1c(-c2ccc(O)cc2)n(Cc2ccc(OCCN3CCCCCC3)cc2)c2ccc(O)cc12",
    "class-name": "bucket 1"
  },
  {
    "compound": "CC(C)c1cc(C(C)C)c(-c2csc(N(CCN(C)C)Cc3cccnc3)n2)c(C(C)C)c1",
    "class-name": "bucket 2"
  },
  {
    "compound": "CCCCC/N=c1\\ccn(Cc2ccccc2)c2ccccc12",
    "class-name": "bucket 3"
  },
  {
    "compound": "CON(C)C(=O)N1N=C(c2cc(F)ccc2F)S[C@@]1(CCCN)c1ccccc1",
    "class-name": "bucket 2"
  },
  {
    "compound": "CC(C)C[C@H](NC(=O)CNC(=O)c1cc(Cl)ccc1Cl)B(O)O",
    "class-name": "bucket 1"
  },
  {
    "compound": "Clc1ccc(COC(Cn2ccnc2)c2ccc(Cl)cc2Cl)cc1 (stereo not given)",
    "class-name": "bucket 3"
  },
  {
    "compound": "O=C(O)c1ccccc1-c1c2cc(I)c(=O)c(I)c-2oc2c(I)c(O)c(I)cc12",
    "class-name": "bucket 3"
  },
  {
    "compound": "C/C(=N\\NC(=S)N1CCC1)c1ccccn1",
    "class-name": "bucket 1"
  },
  {
    "compound": "O=c1[nH]cc(F)c(=O)[nH]1",
    "class-name": "bucket 3"
  }
]

---

Listed here: items and their measured cell viability activity.
Test system: HT29 RNF43 G659fs (RNF43 659mut, CRISPR-edited)
Assay: cell viability activity relative to DMSO (negative = inhibition); higher = more viable cells (less growth inhibition)
Conditions: 5 µM; 96 h

[
  {
    "compound": "CCN(CC)CCNC(=O)c1c(C)[nH]c(/C=C2\\C(=O)Nc3ccc(F)cc32)c1C",
    "cell viability activity / %": -99.7
  },
  {
    "compound": "Cn1cc(CNCC2CCN(c3ncc(C(=O)NO)cn3)CC2)c2ccccc21",
    "cell viability activity / %": -95.9
  },
  {
    "compound": "O=c1cc(N2CCOCC2)oc2c(-c3cccc4c3sc3ccccc34)cccc12",
    "cell viability activity / %": -57.6
  },
  {
    "compound": "CC(NCCC(c1ccccc1)c1ccccc1)c1ccccc1 (stereo not drawn)",
    "cell viability activity / %": -64.5
  },
  {
    "compound": "C[C@H]1O[C@@H](O[C@H]2[C@@H](O)C[C@H](O[C@H]3[C@@H](O)C[C@H](O[C@H]4CC[C@@]5(C)[C@H](CC[C@@H]6[C@@H]5CC[C@]5(C)[C@@H](C7=CC(=O)OC7)CC[C@]65O)C4)O[C@@H]3C)O[C@@H]2C)C[C@H](O)[C@@H]1O",
    "cell viability activity / %": -92.2
  },
  {
    "compound": "CCCC[C@H](NC(C)=O)C(=O)N[C@H]1CC(=O)NCCCC[C@@H](C(=O)O)NC(=O)[C@H](Cc2c[nH]c3ccccc23)NC(=O)[C@H](CCCNC(=N)N)NC(=O)[C@@H](Cc2ccccc2)NC(=O)[C@H](Cc2c[nH]cn2)NC1=O",
    "cell viability activity / %": -42.1
  },
  {
    "compound": "O=C(CCCCCCC(=O)Nc1ccccc1)NO",
    "cell viability activity / %": -85.7
  },
  {
    "compound": "CCN(CC)CCOc1ccc(Nc2ncc3cc(-c4c(Cl)cccc4Cl)c(=O)n(C)c3n2)cc1",
    "cell viability activity / %": -86.7
  }
]

---

Tested on: HT29 RNF43 G659fs (RNF43 659mut, CRISPR-edited)
Experiment: cell viability activity relative to DMSO (negative = inhibition); higher = more viable cells (less growth inhibition)
Details: 5 µM; 96 h
Recorded cell viability activity determines the group label, using class A = under -80%, class B = from -80% up to -50%, class C = -50% and over

[
  {
    "molecular-string": "CN(C)CCCCC(=O)Nc1ccc(NC(=S)NC(=O)c2ccc(C(C)(C)C)cc2)cc1",
    "class-name": "class A"
  },
  {
    "molecular-string": "CN[C@H](C(=O)N[C@H](C(=O)N(C)[C@H](/C=C(\\C)C(=O)O)C(C)C)C(C)(C)C)C(C)(C)c1ccccc1",
    "class-name": "class B"
  },
  {
    "molecular-string": "Cc1c(C2CCN(CCc3ccccc3)CC2)noc1-c1ccc(Cl)cc1",
    "class-name": "class C"
  },
  {
    "molecular-string": "Nc1ncnc2c1c(-c1cnc3[nH]ccc3c1)nn2C1CCCC1",
    "class-name": "class A"
  },
  {
    "molecular-string": "Cc1cc(O)c(-c2ccc([C@@H](C)CN)cc2)c2c1[nH]c(=O)c1sccc12",
    "class-name": "class A"
  },
  {
    "molecular-string": "C=C1/C(=C\\C=C2/CCC[C@]3(C)[C@@H]([C@H](C)CCCC(C)C)CC[C@@H]23)C[C@@H](O)C[C@@H]1O",
    "class-name": "class B"
  }
]

---

Quick list: cell viability activity per entry.
Tested on: HT29 sg-Ctrl (RNF43 wildtype)
Test: cell viability activity relative to DMSO (negative = inhibition); higher = more viable cells (less growth inhibition)
Settings: 5 µM; 96 h

[
  {
    "molecule": "Cc1ccc(C)c(OCCCC(C)(C)C(=O)O)c1",
    "cell viability activity [%]": -39.7
  },
  {
    "molecule": "COc1cc(C(=O)NC2CCN(C)CC2)c(F)cc1Nc1ncc2c(n1)N(C1CCCC1)CC(F)(F)C(=O)N2C",
    "cell viability activity [%]": -68.1
  },
  {
    "molecule": "CN1CCC(NC(=O)c2cc(-c3c(O)cc(O)cc3Oc3ccc([N+](=O)[O-])cc3)on2)CC1",
    "cell viability activity [%]": -21.1
  },
  {
    "molecule": "COc1cc2c(cc1-c1c(C)noc1C)ncc1[nH]c(=O)n([C@H](C)c3ccccn3)c12",
    "cell viability activity [%]": -68.4
  },
  {
    "molecule": "Clc1ccc(CSC(Cn2ccnc2)c2ccc(Cl)cc2Cl)cc1 (stereo not given)",
    "cell viability activity [%]": -29
  },
  {
    "molecule": "CN(C)C(=O)[C@H](O)[C@H](Cc1ccccc1)NC(=O)c1cc2cc(Cl)ccc2[nH]1",
    "cell viability activity [%]": 7.41
  },
  {
    "molecule": "O=C(Cc1ccc(-c2ccc(OCCN3CCOCC3)cc2)cn1)NCc1ccccc1",
    "cell viability activity [%]": -52
  },
  {
    "molecule": "CCN(c1cc(C#CCN2CCOCC2)cc(C(=O)NCc2c(C)cc(C)[nH]c2=O)c1C)[C@H]1CC[C@H](N(C)CCOC)CC1",
    "cell viability activity [%]": -35.6
  },
  {
    "molecule": "O=C1C(Cl)=C(NCCN2CCOCC2)C(=O)c2ncccc21",
    "cell viability activity [%]": -94.7
  },
  {
    "molecule": "O=C(c1cn(Cc2cncn2Cc2ccc(Br)cc2)cc1-c1cccc2ccccc12)N1CCOCC1",
    "cell viability activity [%]": -38.5
  }
]
